test system: LCK (mouse); assay: radiometric filter-binding kinase assay; conditions: compound 1.0 µM; accession and sequence are those of the human protein
Endpoint Name: residual activity (%)

Examples from the recorded data:
- Compound: "O=c1c(O)c(-c2ccc(O)c(O)c2)oc2cc(O)c(O)c(O)c12"
  Endpoint Name: "residual activity"
  Measured Number: 102
- Compound: "CC(C)(C#N)c1ccc(N2C(=O)OCc3cnc4ccc(-c5cnc6ccccc6c5)cc4c32)cc1"
  Endpoint Name: "residual activity"
  Measured Number: 78
- Compound: "NS(=O)(=O)OC[C@@H]1C[C@@H](n2ccc3c(N[C@H]4CCc5ccccc54)ncnc32)C[C@@H]1O"
  Endpoint Name: "residual activity"
  Measured Number: 98
- Compound: "COc1ccc2c(c1)c1c3c(c4c5ccccc5n(C)c4c1n2CC(O)CN(C)C)C(=O)NC3=O (stereo not drawn)"
  Endpoint Name: "residual activity"
  Measured Number: 75
- Compound: "C[C@H]1CCCC(=O)CCC/C=C/c2cc(O)cc(O)c2C(=O)O1"
  Endpoint Name: "residual activity"
  Measured Number: 69

A: FC(F)(F)c1ccc(-c2ccc(Oc3cncc4sc(-c5nn[nH]n5)cc34)cc2)cc1
B: Cc1ccc(Sc2cnc(Nc3cccc(Br)n3)s2)cc1C(=O)N1CCN(C(=O)CN)CC1
C: COc1cc(O)c2c(c1)[C@H]1OC1C[C@H](O)[C@H](O)C(=O)/C=C\C[C@H](C)OC2=O (stereo partly drawn)
Request: Hey, quick one: sort these by residual activity, largest value first please. When ranking, write the labels in the order the request describes.
Result: A, C, B

* * *

target: CSNK2A1 (human) (UniProt P68400); assay: radiometric filter-binding kinase assay; conditions: compound 1.0 µM
Sequence (P68400 whole entry, looked up): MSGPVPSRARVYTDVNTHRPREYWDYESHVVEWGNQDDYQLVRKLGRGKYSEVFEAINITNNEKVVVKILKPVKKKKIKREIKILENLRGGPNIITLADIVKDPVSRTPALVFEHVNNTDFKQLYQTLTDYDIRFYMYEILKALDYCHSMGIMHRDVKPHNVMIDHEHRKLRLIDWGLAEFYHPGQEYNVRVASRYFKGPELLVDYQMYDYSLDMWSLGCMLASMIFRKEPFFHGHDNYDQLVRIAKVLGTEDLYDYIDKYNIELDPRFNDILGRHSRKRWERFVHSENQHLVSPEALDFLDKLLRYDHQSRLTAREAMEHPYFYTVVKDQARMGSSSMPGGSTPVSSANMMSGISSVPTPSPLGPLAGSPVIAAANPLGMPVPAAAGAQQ
Endpoint Name: residual activity (%)

Examples from the recorded data:
- Molecule: "COc1ccc(-n2ncc3cnc(Nc4cc(OC)c(OC)c(OCCCN5CCN(C)CC5)c4)nc32)cc1"
  residual activity [%]: 6
- Molecule: "O=C(Nc1nc2cc(C(F)(F)F)cc(NC3CC3)n2n1)c1cccnc1"
  residual activity [%]: 102
- Molecule: "CCCCCc1ccc(/C=C/[C@H](O)[C@@H](CO)NC)cc1"
  residual activity [%]: 87
- Molecule: "Cc1ccc(-c2ccc3c(ccc4sc5c(c43)NC[C@@H](C)NC5=O)n2)cn1"
  residual activity [%]: 97
- Molecule: "COc1ccc(N(C(=O)Nc2c(C)cccc2C)c2cc(Nc3ccc(N4CCN(C)CC4)cc3)ncn2)c(OC)c1"
  residual activity [%]: 100
- Molecule: "CCn1c(-c2nonc2N)nc2cncc(CNC3CCNCC3)c21"
  residual activity [%]: 74
- Molecule: "COc1cc2ncn(-c3cc(OCc4ccccc4S(C)(=O)=O)c(C#N)s3)c2cc1OC"
  residual activity [%]: 118
- Molecule: "NS(=O)(=O)OC[C@@H]1C[C@@H](n2ccc3c(N[C@H]4CCc5ccccc54)ncnc32)C[C@@H]1O"
  residual activity [%]: 80
- Molecule: "O=C(O)c1cc(N=Nc2ccc(S(=O)(=O)Nc3ccccn3)cc2)ccc1O"
  residual activity [%]: 83
- Molecule: "O=C(NCCCNc1nc(Nc2cccc(CN3CCOCC3)c2)ncc1C1CC1)C1CCC1"
  residual activity [%]: 86

A: Cc1cccc(Nc2nn(C)c3ncnc(N)c23)c1
B: COc1cc(O)c2c(c1)[C@H]1OC1C[C@H](O)[C@H](O)C(=O)/C=C\C[C@H](C)OC2=O (stereo partly drawn)
Request: In the pair A and B , the larger recorded residual activity belongs to which? Reply with the label of the item you choose.
Result: B
(B: 133%, A: 93%)

* * *

molecular target: MKNK2 (human) (UniProt Q9HBH9); assay: radiometric filter-binding kinase assay; conditions: compound 1.0 µM
Sequence (Q9HBH9 whole entry, looked up): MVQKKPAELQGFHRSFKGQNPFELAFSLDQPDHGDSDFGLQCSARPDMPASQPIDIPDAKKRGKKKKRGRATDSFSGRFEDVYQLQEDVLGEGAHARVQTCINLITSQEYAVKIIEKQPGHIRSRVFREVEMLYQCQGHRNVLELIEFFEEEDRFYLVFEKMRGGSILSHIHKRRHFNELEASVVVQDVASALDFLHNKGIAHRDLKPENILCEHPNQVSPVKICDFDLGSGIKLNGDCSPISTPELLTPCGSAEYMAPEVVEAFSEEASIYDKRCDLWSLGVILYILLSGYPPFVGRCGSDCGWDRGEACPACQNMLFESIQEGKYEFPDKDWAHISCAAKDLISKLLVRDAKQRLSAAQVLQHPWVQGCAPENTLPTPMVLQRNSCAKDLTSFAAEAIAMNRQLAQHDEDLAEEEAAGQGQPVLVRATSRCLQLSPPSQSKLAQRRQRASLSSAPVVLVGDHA
Endpoint Name: residual activity (%)

Examples from the recorded data:
- Smiles Record: "O=C(Nc1ccccc1-c1cn2c(CN3CCNCC3)csc2n1)c1cnc2ccccc2n1"
  residual activity / %: 92
- Smiles Record: "CCc1cncnc1N1CCN(Cc2nc3cc(C(F)(F)F)ccc3[nH]2)CC1"
  residual activity / %: 93
- Smiles Record: "CN1C(=O)[C@@H](Cc2c[nH]c3ccccc23)NC1=S"
  residual activity / %: 106
- Smiles Record: "O=C(NOC[C@H](O)CO)c1ccc(F)c(F)c1Nc1ccc(I)cc1Cl"
  residual activity / %: 93
- Smiles Record: "Cc1cc(NC(=O)c2cccc(NC(=O)/C=C/CN(C)C)c2)ccc1Nc1nccc(-c2cccnc2)n1"
  residual activity / %: 67
- Smiles Record: "NCC(=O)Nc1ccc(-n2nc(C(F)(F)F)cc2-c2ccc3c(ccc4ccccc43)c2)cc1"
  residual activity / %: 91

a: O=C(Nc1nc2cc(C(F)(F)F)cc(NC3CC3)n2n1)c1cccnc1
b: CCNc1nc(Nc2cc(F)c(C(=O)N3CCOCC3)cc2OC)ncc1C(F)(F)F
Request: Lower value of residual activity belongs to which: a or b ? Reply with the label of the item you choose.
Result: b

* * *

biological target: CHEK2 (human); experiment: radiometric filter-binding kinase assay; details: compound 1.0 µM
Endpoint Name: residual activity (%)

Examples from the recorded data:
- Compound: "Oc1ccc(/C=C/c2cc(O)cc(O)c2)cc1"
  Experimental Target: "CHEK2 (human)"
  residual activity, %: 84
- Compound: "CNc1nc(-c2ccc3c(N)n[nH]c3c2)cc(N2C[C@@H](C(=O)NC3CCCCC3)CC[C@H]2C)n1"
  Experimental Target: "CHEK2 (human)"
  residual activity, %: 96
- Compound: "O=c1c(O)c(-c2ccc(O)c(O)c2)oc2cc(O)c(O)c(O)c12"
  Experimental Target: "CHEK2 (human)"
  residual activity, %: 48
- Compound: "NC1(c2ccc(-c3nc4ccn5c(=O)[nH]nc5c4cc3-c3ccccc3)cc2)CCC1"
  Experimental Target: "CHEK2 (human)"
  residual activity, %: 81
- Compound: "NC(=O)c1c(NC(=O)C2CC2)sc2c1CCCC2"
  Experimental Target: "CHEK2 (human)"
  residual activity, %: 74
- Compound: "COc1cc2ncn(-c3cc(OCc4ccccc4S(C)(=O)=O)c(C#N)s3)c2cc1OC"
  Experimental Target: "CHEK2 (human)"
  residual activity, %: 19

A: O=C1Nc2nc(-c3c(O)cccc3OCC3CC3)cc(C3CCCNC3)c2CO1 (stereo not given)
B: CCNc1nc(Nc2cc(F)c(C(=O)N3CCOCC3)cc2OC)ncc1C(F)(F)F
C: COc1ccc2c(c1)c1c3c(c4c5ccccc5n(C)c4c1n2CC(O)CN(C)C)C(=O)NC3=O (stereo not given)
Request: Let's sort these by residual activity, smallest first. Go ahead? When ranking, write the labels in the order the request describes.
Result: B, C, A

A: C=C1C(=O)OC2C1CC/C(C)=C/CCC1(C)OC21 (stereo not given)
B: CNC(=O)C1[C@H]2O[C@@](C)([C@@H]1N)n1c3ccccc3c3c4c(c5c6ccccc6n2c5c31)C(=O)NC4 (stereo not given in full)
C: Oc1ccc2ccccc2c1SSc1c(O)ccc2ccccc12
D: COc1ccc(N(C(=O)Nc2c(C)cccc2C)c2cc(Nc3ccc(N4CCN(C)CC4)cc3)ncn2)c(OC)c1
E: Cc1ccc(Sc2cnc(Nc3cccc(Br)n3)s2)cc1C(=O)N1CCN(C(=O)CN)CC1
Request: Hey, quick one: sort these by residual activity, largest value first please. When ranking, write the labels in the order the request describes.
Result: A, C, D, E, B
(A: 102%, C: 58%, D: 34%, E: 18%, B: 2%)

a: FC(F)(F)c1ccc(-c2ccc(Oc3cncc4sc(-c5nn[nH]n5)cc34)cc2)cc1
b: N#Cc1c(C2CCNCC2)cc(-c2c(O)cccc2OCC2CC2)nc1N
Request: Lower value of residual activity belongs to which: a or b ? Reply with the label of the item you choose.
Result: b

* * *

molecular target: CaMK1 (human) (UniProt Q14012); experiment: radiometric filter-binding kinase assay; settings: compound 1.0 µM
Sequence (Q14012 whole entry, looked up): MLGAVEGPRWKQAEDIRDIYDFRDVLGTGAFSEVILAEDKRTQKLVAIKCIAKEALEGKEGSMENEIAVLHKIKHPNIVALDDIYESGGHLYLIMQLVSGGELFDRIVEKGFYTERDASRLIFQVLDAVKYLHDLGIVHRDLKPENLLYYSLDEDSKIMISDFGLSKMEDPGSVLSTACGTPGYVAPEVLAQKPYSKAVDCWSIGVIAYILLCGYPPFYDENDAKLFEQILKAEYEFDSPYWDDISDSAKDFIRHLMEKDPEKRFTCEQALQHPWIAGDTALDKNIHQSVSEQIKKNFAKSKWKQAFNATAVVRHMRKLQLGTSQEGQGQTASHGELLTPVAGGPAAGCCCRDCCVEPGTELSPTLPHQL
Endpoint Name: residual activity (%)

Examples from the recorded data:
- Smiles Record: "Cc1cccc(Nc2nn(C)c3ncnc(N)c23)c1"
  Experimental Target: "CaMK1 (human) (UniProt Q14012)"
  residual activity (%): 92
- Smiles Record: "O=c1c(O)c(-c2ccc(O)c(O)c2)oc2cc(O)c(O)c(O)c12"
  Experimental Target: "CaMK1 (human) (UniProt Q14012)"
  residual activity (%): 49
- Smiles Record: "Cc1ccc(Sc2cnc(Nc3cccc(Br)n3)s2)cc1C(=O)N1CCN(C(=O)CN)CC1"
  Experimental Target: "CaMK1 (human) (UniProt Q14012)"
  residual activity (%): 59
- Smiles Record: "Cc1cc(SCc2sc(-c3ccc(C(F)(F)F)cc3)nc2C)ccc1OCC(=O)O"
  Experimental Target: "CaMK1 (human) (UniProt Q14012)"
  residual activity (%): 95

P: NC(=O)c1cc(-c2ccnc(NC3CCCCC3)c2)nc(N2CCNCC2)c1
Q: O=C(NCCCNc1nc(Nc2cccc(CN3CCOCC3)c2)ncc1C1CC1)C1CCC1
Request: In the pair P and Q , the larger recorded residual activity belongs to which? Reply with the label of the item you choose.
Result: Q
